TARGET UNDER TEST: human adenosine A1 receptor (Homo sapiens (Human))
Sequence (P30542 whole entry): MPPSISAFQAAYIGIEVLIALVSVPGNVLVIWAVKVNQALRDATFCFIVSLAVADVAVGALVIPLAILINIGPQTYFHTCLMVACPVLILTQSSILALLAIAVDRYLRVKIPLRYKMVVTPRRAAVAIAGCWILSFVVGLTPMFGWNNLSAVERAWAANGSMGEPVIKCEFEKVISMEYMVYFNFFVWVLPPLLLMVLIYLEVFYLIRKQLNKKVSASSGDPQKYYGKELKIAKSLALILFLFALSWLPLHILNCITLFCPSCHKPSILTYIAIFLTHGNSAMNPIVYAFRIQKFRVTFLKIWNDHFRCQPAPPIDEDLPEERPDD
Friendly reminder: Ki below 0.6 µM is true, at or above is false.

Exam item: Here's an entry: `CCn1c(=O)c2c(C)c(CN3CCNC3=O)sc2n(CCOC)c1=O` . Is its Ki below 0.6 µM?
Marked response: true

Exam item: Also need `CCn1c(=O)c2c(C)c(Cn3nc[nH]c3=O)sc2n(CCC(F)(F)F)c1=O` , thanks.
Marked response: false

Exam item: Would you mind doing `CCn1c(=O)c2c(C)c(Cn3cn[nH]c3=O)sc2n(CCC(F)(F)F)c1=O` as well?
Marked response: false

Exam item: Same again, this time with `COCCn1c(=O)n(C(C)C)c(=O)c2c(C)c(CN3CCNC3=O)sc21`
Marked response: false

---

TARGET UNDER TEST: human adenosine A2b receptor (Homo sapiens (Human))
PROCEDURE TEXT: Cellular in vitro reporter gene test for A2b receptor activity (CHO-K1, CRE-luciferase, NECA stimulation)
Type: cell-based
REPORTED CONDITIONS: recombinant CHO-K1 cell line, CRE-luciferase reporter, antagonism of EC50 concentration of NECA; in some cases means of several determinations, rounded to two significant figures; read-out: A2b receptor IC50
Give IC50 for every item shown.
Provide only the numeric value, understood in nM.

Exam item: Which value of IC50 has been reported for `Cc1c(CN2CCN(C)C2=S)sc2c1c(=O)n(CC(F)(F)F)c(=O)n2CCC(F)(F)F` in the records?
Marked response: 5.9

Exam item: Note, next up: `CCSCCn1c(=O)n(CC)c(=O)c2c(C)c(CN3CCNC3=S)sc21`
Marked response: 20

Exam item: Same question for `CCn1c(=O)c2c(C)c(CN3CC[C@@H](O)C3=O)sc2n(CCOC)c1=O` please.
Marked response: 33

Exam item: Param item: CCn1c(=O)c2c(C)c(CN3CCNC3=O)sc2n(CC2CC2(F)F)c1=O (single isomer, unassigned; enantiomer 1) [Example 55]
Marked response: 1.3

Exam item: Likewise for `CCn1c(=O)c2c(C)c(CN3CCNC3=O)sc2n(CC#N)c1=O` ?
Marked response: 14

Exam item: Now consider CCn1c(=O)c2c(C)c(CN3CCNC3=S)sc2n(CC2CCO2)c1=O (racemic) and answer again.
Marked response: 10

Exam item: // next record Cc1c(CN2CCNC2=S)sc2c1c(=O)n(CC(F)(F)F)c(=O)n2CC1CCO1 (racemic) [Example 154]
Marked response: 7.1

Exam item: Thanks! And `CCn1c(=O)c2c(C)c(Cn3nc[nH]c3=O)sc2n(CCCF)c1=O` ?
Marked response: 31

---

TARGET UNDER TEST: human adenosine A2b receptor (Homo sapiens (Human), UniProt P29275)
Sequence (P29275 whole entry): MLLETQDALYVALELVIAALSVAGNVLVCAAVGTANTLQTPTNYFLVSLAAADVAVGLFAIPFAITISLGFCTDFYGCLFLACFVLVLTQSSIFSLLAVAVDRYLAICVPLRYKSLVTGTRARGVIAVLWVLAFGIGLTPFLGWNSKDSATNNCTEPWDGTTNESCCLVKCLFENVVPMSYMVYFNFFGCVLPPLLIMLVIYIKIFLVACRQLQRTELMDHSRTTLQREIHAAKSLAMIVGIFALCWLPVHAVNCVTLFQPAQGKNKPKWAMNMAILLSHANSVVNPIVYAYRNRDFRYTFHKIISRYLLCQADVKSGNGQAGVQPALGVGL
PROCEDURE TEXT: Cellular in vitro reporter gene test for A2b receptor activity (CHO-K1, CRE-luciferase, NECA stimulation)
Type: cell-based
REPORTED CONDITIONS: recombinant CHO-K1 cell line, CRE-luciferase reporter, antagonism of EC50 concentration of NECA; in some cases means of several determinations, rounded to two significant figures; read-out: A2b receptor IC50
ASSAY ENDPOINT: pIC50
# pIC50: negative log10 of molar concentration; output just the value

Exam item: Would you kindly share the measured pIC50 for CCn1c(=O)c2c(C)c(CN3CCNC3=O)sc2n(CC2CCO2)c1=O (single isomer, unassigned; enantiomer 1) [Example 66] ?
Marked response: 8.37

Exam item: Request: `COCCn1c(=O)c2c(C)c(CN3CCNC3=S)sc2n(CCOC)c1=O`
Marked response: 7.82

Exam item: Field entry: CCn1c(=O)c2c(C)c(CN3CCNC3=NC(=O)OC)sc2n(CCOC)c1=O (single isomer, unassigned) [Example 119]
Marked response: 8.57

Exam item: Param item: COC(C)Cn1c(=O)c2c(C)c(Cn3nc[nH]c3=O)sc2n(CCC(F)(F)F)c1=O (racemic) [Example 440]
Marked response: 7.64

Exam item: Now try COC(C)Cn1c(=O)c2c(C)c(Cn3nc[nH]c3=O)sc2n(CCC(F)(F)F)c1=O (single isomer, unassigned) [Example 441] .
Marked response: 8.07

Exam item: What do you get for `COC(C)(C)Cn1c(=O)c2c(C)c(CN3CCNC(=O)C3=O)sc2n(CCCF)c1=O` ?
Marked response: 7.09

Exam item: `COCCn1c(=O)c2c(C)c(Cn3cc[nH]c3=O)sc2n(CCOC)c1=O` ?
Marked response: 7.77

---

TARGET UNDER TEST: UniProtKB P29275
PROCEDURE TEXT: Cellular in vitro reporter gene test for A2b receptor activity (CHO-K1, CRE-luciferase, NECA stimulation)
Format: cell-based
REPORTED CONDITIONS: recombinant CHO-K1 cell line, CRE-luciferase reporter, antagonism of EC50 concentration of NECA; in some cases means of several determinations, rounded to two significant figures; read-out: A2b receptor IC50
ASSAY ENDPOINT: IC50

Exam item: Record request: IC50 value, item `COCCn1c(=O)n(CCc2ccccc2)c(=O)c2c(C(F)(F)F)c(CN3CCCS3(=O)=O)sc21`
Marked response: 0.014 µM

Exam item: Input `Cc1c(Cn2nc[nH]c2=O)sc2c1c(=O)n(C(C)C)c(=O)n2CCCF`
Marked response: 0.055 µM

Exam item: Now this one: `Cc1c(CN2CCNC2=NC#N)sc2c1c(=O)n(CC(C)(C)C)c(=O)n2CCC(F)(F)F`
Marked response: 0.0074 µM

Exam item: Quick one: `Cc1c(CN2CCNC2=O)sc2c1c(=O)n(C(C)C)c(=O)n2CCCF`
Marked response: 0.0047 µM

Exam item: What do you have for `Cc1c(CN2CCNC2=S)sc2c1c(=O)n(CC(F)F)c(=O)n2CC1COC1` ?
Marked response: 0.0065 µM

Exam item: // next record Cc1c(CN2CCNC2=O)sc2c1c(=O)n(CC(F)F)c(=O)n2CC1CCO1 (racemic) [Example 216]
Marked response: 0.034 µM

Exam item: Could you do the same for CCn1c(=O)c2c(C)c(CN3CCNC3=O)sc2n(CC2CCOC2)c1=O (single isomer, unassigned; enantiomer 1) [Example 74] , please?
Marked response: 0.036 µM

Exam item: Queued: `C=CCCn1c(=O)c2c(C)c(CN3CCNC3=O)sc2n(CCOC)c1=O`
Marked response: 0.0013 µM

Exam item: And then `Cc1c(CN2CCNC2=O)sc2c1c(=O)n(CC(C)C)c(=O)n2CC1COC1` , what is it?
Marked response: 0.0081 µM

Exam item: Lookup Cc1c(CN2CCNC2=O)sc2c1c(=O)n(CC(C)C)c(=O)n2CC1CCO1 (single isomer, unassigned) [Example 195]
Marked response: 0.041 µM

Exam item: // repeat for `CCOCCn1c(=O)c2c(C)c(CN3CCNC(=O)C3=O)sc2n(CCC(F)(F)F)c1=O` and report
Marked response: 0.035 µM

Exam item: Please answer likewise for Cc1c(CN2CCNC2=S)sc2c1c(=O)n(CC(C)C)c(=O)n2CC1CCO1 (single isomer, unassigned) [Example 147]
Marked response: 0.022 µM

Exam item: Follow-up entry: COC(=O)N=C1NCCN1Cc1sc2c(c1C)c(=O)n(CC(C)(C)C)c(=O)n2CC1CCCO1 (single isomer, unassigned) [Example 465]
Marked response: 0.013 µM

Exam item: Next molecule up: `C#CCn1c(=O)c2c(C)c(CN3CCNC3=O)sc2n(CCOC)c1=O`
Marked response: 0.0043 µM

Exam item: Another molecule: `CCOCCn1c(=O)c2c(C)c(CN3CCNC3=O)sc2n(CCC(F)(F)F)c1=O`
Marked response: 0.01 µM

Exam item: Try this molecule too: `COCCn1c(=O)n(CC(F)(F)F)c(=O)c2c(C)c(CN3CCNC3=O)sc21`
Marked response: 0.0077 µM

Exam item: Then what about the molecule `COCCn1c(=O)n(CC(C)(C)C)c(=O)c2c(C)c(CN3CCNC3=NC(=O)OC)sc21` ?
Marked response: 0.016 µM

Exam item: Further, for Cc1c(CN2CCNC2=S)sc2c1c(=O)n(CC(F)F)c(=O)n2CC1CCCO1 (single isomer, unassigned) [Example 164] ?
Marked response: 0.017 µM

Exam item: Please give the result for Cc1c(CN2CCNC2=S)sc2c1c(=O)n(CC(F)(F)F)c(=O)n2CC1CCO1 (single isomer, unassigned) [Example 155] too.
Marked response: 0.026 µM

Exam item: Another molecule: CCn1c(=O)c2c(C)c(CN3CCNC3=NC(=O)OC)sc2n(CC2CCO2)c1=O (racemic) [Example 371]
Marked response: 0.0098 µM

Exam item: Same again, this time with CCn1c(=O)c2c(C)c(CN3CCNC3=NC#N)sc2n(CC2CCCO2)c1=O (single isomer, unassigned) [Example 260]
Marked response: 0.0022 µM

Exam item: Consider next the molecule COCCn1c(=O)c2c(C)c(CN3CCNC(=O)C3=O)sc2n(CC2CCO2)c1=O (single isomer, unassigned) [Example 402] in the same way.
Marked response: 0.1 µM

Exam item: Next molecule: `Cc1c(CN2CCNC2=S)sc2c1c(=O)n(CC(C)(C)C)c(=O)n2CCCF`
Marked response: 0.006 µM

Exam item: Now the same for Cc1c(CN2CCNC(=O)C2=O)sc2c1c(=O)n(CC(C)(C)C)c(=O)n2CC1CCCO1 (racemic) [Example 483]
Marked response: 0.045 µM

Exam item: Queued: COCCn1c(=O)c2c(C)c(CN3CCNC3=NC(=O)OC)sc2n(CC2CCCO2)c1=O (single isomer, unassigned) [Example 392]
Marked response: 0.056 µM

Exam item: Query Cc1c(CN2CCNC2=S)sc2c1c(=O)n(CC(F)(F)F)c(=O)n2CC1CCCO1 (single isomer, unassigned) [Example 299] next
Marked response: 0.0056 µM

Exam item: Request: `C=CCn1cnn(Cc2sc3c(c2C)c(=O)n(CC)c(=O)n3CF)c1=O`
Marked response: 0.63 µM

Exam item: Ok, now `CCn1c(=O)c2c(C)c(CN3CC(=O)NCC3=O)sc2n(CCC(F)(F)F)c1=O`
Marked response: 0.73 µM

Exam item: Param item: CCn1c(=O)c2c(C)c(CN3CCNC(=O)C3=O)sc2n(CC2CCCO2)c1=O (single isomer, unassigned) [Example 477]
Marked response: 0.27 µM

Exam item: # repeat for CCn1c(=O)c2c(C)c(C(C)N3CCNC3=O)sc2n(CCC(F)(F)F)c1=O (racemic) [Example 416]
Marked response: 0.079 µM
